Source listed as a melting point compilation (Tetko et al.).

TEST_CONDITIONS: a range is the spread between reports
QUANTITY_MEASURED: melting point

INSERT INTO results (structure_string, quantity_measured, value_observed) VALUES
  ('O=[N+]([O-])c1cc(F)ccc1O', 'melting point', '73 to 75 °C'),
  ('O=C(O)c1cccc(Br)c1', 'melting point', '155 to 157 °C'),
  ('CCCCl', 'melting point', '-123 to -122 °C'),
  ('CN(C)c1ccc(/N=N/c2ccccc2C(=O)O)cc1', 'melting point', '180 to 183 °C'),
  ('Cc1ccc([N+](=O)[O-])cc1C', 'melting point', '29 to 31 °C'),
  ('CCc1nc(N)nc(N)c1-c1ccc(Cl)cc1', 'melting point', '233 to 234 °C'),
  ('c1ccc2c(c1)CCO2', 'melting point', '-21.5 to -21 °C'),
  ('Cc1n[nH]c(=S)[nH]c1=O', 'melting point', '218 to 220 °C'),
  ('Cc1ccc(C(=O)c2ccccc2)cc1C', 'melting point', '46 to 47.5 °C'),
  ('CCc1ccc(CC)cc1', 'melting point', '-43 to -42.8 °C'),
  ('S=C=Nc1ccc(Cl)cc1', 'melting point', '45 to 46 °C'),
  ('O=[N+]([O-])c1cc(I)c(O)c(I)c1', 'melting point', '153 to 157 °C'),
  ('Brc1cccc2ccccc12', 'melting point', '-1.8 to -1 °C'),
  ('CCCCCCCCCCCCCCCCCCCCCCCCC', 'melting point', '53 to 54 °C'),
  ('CC(C)(C)c1ccc(C(=O)O)cc1', 'melting point', '164 to 166 °C'),
  ('Cc1cccnc1N', 'melting point', '31 to 33.5 °C'),
  ('COc1ccc(C=Nc2ccccc2)cc1', 'melting point', '61 to 65 °C'),
  ('N#Cc1cccc(C(F)(F)F)c1', 'melting point', '14.5 to 16 °C');
